System: Plasmodium falciparum
Experiment: GSK_TCMDC: Inhibition of Plasmodium falciparum 3D7 in whole erythrocytes, using parasite LDH activity as an index of growth.
Assay type: functional, organism-based
Settings: Plasmodium falciparum, 3D7
OBSERVATION_TYPE: XC50

What value of XC50 has been reported for the following compound? COc1ccc(NC(=O)c2ccc(Br)c(C)c2)cc1N1CCN(CCCc2c[nH]c3ccccc23)CC1
382 nM

And for CCOc1cc(C)c(C2CCN(CCCCNC(=O)c3ccc(NC(=O)c4ccc(Cl)cc4)cc3)CC2)cc1C ?
739 nM

And for COc1ccc(-c2cccc(CNCc3ccc(F)cc3)c2)cc1S(=O)(=O)NCCN1CCCC1 ?
1850 nM

And for CC1Cc2ccccc2N1S(=O)(=O)c1cccc(C(=O)Nc2nc(-c3ccccn3)cs2)c1 (stereo not given) ?
1320 nM

And for Cc1cccc2nc(-c3cccc(-c4cccc(NC(=O)Nc5ccc(Cl)cc5)c4)c3)[nH]c12 ?
236 nM

And for COc1ccc(Cl)cc1NC(=O)CN(C)C(=O)c1cnn(-c2ccccc2)n1 ?
228 nM

And for O=C(/C=C/c1ccc(Cl)cc1)NCCCCCN1CCCN(C(=O)Nc2ccc(Cl)c(C(F)(F)F)c2)CC1 ?
910 nM

And for CCc1cc(C(=O)c2cccc(C)c2)c(NC(=O)CN2CCN(C(=O)c3ccco3)CC2)s1 ?
451 nM

And for N#C/N=C(\NCCCCCCCCN/C(=N\C#N)NCCSCc1csc(N=C(N)N)n1)NCCCSc1csc(N=C(N)N)n1 ?
844 nM

And for CN(C)C(S)=NN=Cc1cccc(O)c1O ?
872 nM

And for C=CCn1ccc2c3c(N)nc(N)nc3ccc21 ?
70 nM

And for Cn1nc(-c2ccc(NC(=O)Nc3cc(C(F)(F)F)cc(C(F)(F)F)c3)c(F)c2)c2cnc(NCCN3CCOCC3)nc21 ?
801 nM

And for CC[C@H]1CN2CC[C@H]1C[C@H]2[C@H](O)c1cc(-c2ccccc2C)nc2ccc(OC)cc12 ?
195 nM

And for Cc1nnc2c(NC(=O)NC(C)C)cc3cc(-c4ccc(CN5CCCCC5)cc4)ccc3n12 ?
1180 nM

And for CN1CCCC(CN2CCN(Cc3cccc(-c4ccc(-c5nc6ccccc6[nH]5)cc4)c3)CC2)C1 (stereo not given) ?
157 nM

* * *

Would you kindly list XC50 for each of these compounds?
Test system: Plasmodium falciparum
Test: GSK_TCMDC: Inhibition of Plasmodium falciparum 3D7 in whole erythrocytes, using parasite LDH activity as an index of growth.
Type: functional, organism-based
Settings: Plasmodium falciparum, 3D7
Give a bare numeral; the unit nM is implied.

What value of XC50 has been reported for the following compound? CC(C)c1ccc(NC(=O)c2ccc(CN3CCCN(CC4CCCCC4)CC3)cc2)cc1
615

And for c1cc(-c2ccc(CN3CCCCC3)cc2)cc(-c2nc3ccccc3[nH]2)c1 ?
585

And for CC1(C)N=C(N)N=C(N)N1OCc1cc(Cl)c(CON2C(N)=NC(N)=NC2(C)C)cc1Cl ?
37.8

And for COc1ccccc1N1CCN(CCCCNC(=O)c2ccc(NC(=O)c3cc(Cl)cc(Cl)c3)cc2)CC1 ?
458

And for N#Cc1ccc(CN2CCC(Oc3ccc(NC(=O)c4cccs4)cc3Cl)CC2)cc1 ?
577

And for O=S(=O)(Nc1ccc(CCN2CCCCC2CCN2CCCC2)cc1)c1cccc2cccnc12 (stereo not given) ?
1300

And for CCNc1cc(C(=O)N[C@@H](Cc2ccccc2)[C@H](O)CNC23CCC(CC2)C3)cc(N2CCCCS2(=O)=O)c1 ?
34.1

And for COc1ccc2nc(-c3ccc(F)cc3)cc([C@@H](O)[C@@H]3C[C@@H]4CCN3CC4C=NO)c2c1 (stereo not given in full) ?
248

And for O=C(Nc1ccc(-c2cccc(-c3nc4cc(C(F)(F)F)ccc4[nH]3)c2)cc1)Nc1ccc(F)c(F)c1F ?
706

And for O=C(c1ccc(Cl)cc1)N1CCCC(C(=O)N(Cc2nnc(-c3ccccc3Cl)o2)C2CC2)C1 (stereo not given) ?
227

* * *

System: Plasmodium falciparum
Assay: GSK_TCMDC: Inhibition of Plasmodium falciparum 3D7 in whole erythrocytes, using parasite LDH activity as an index of growth.
Type: functional, organism-based
Conditions: Plasmodium falciparum, 3D7
API: label(entry) gives class 1 if the entry's XC50 is strictly smaller than 1000 nM; on equality or larger values it gives class 0.

Dear reviewer, please state whether CCN(CC)CCOc1ccc(Nc2ncc3cc(-c4c(Cl)cccc4Cl)c(=O)n(C)c3n2)cc1 [PD-0166285] has XC50 strictly beneath 1000 nM.
class 0

And for CC(=O)Nc1ccc(C(=O)Nc2ccc(-c3cccc(-c4nc5ccccc5[nH]4)c3)cc2)cn1 ?
class 1

And for Cn1c(CN2CCC(N3CCc4cc(NC(=O)c5ccco5)ccc43)C2)cc2ccccc21 (centres undefined) ?
class 1

And for CC1CCN(CC[C@H]2CCCN2S(=O)(=O)c2cccc(NC(=O)c3ccc(-c4ccccc4)cc3)c2)CC1 ?
class 0

And for COc1cccc(CNC(=O)c2ccnc(-c3cccc(CN(C)C4CCN(C)CC4)c3)c2)c1 ?
class 1

And for O=C(Nc1cccc(CN2CCCN(Cc3ccc(O)cc3)CC2)c1)c1ccc(Br)cc1 ?
class 1

And for COc1cc(C)c(NC(=O)c2cccc3c(=O)c(C)c(-c4ccccc4)oc23)cc1OC ?
class 0

And for N#Cc1cccc(NC(=O)NC2CCN(CCCCCNC(=O)/C=C/c3ccc(Cl)c(Cl)c3)CC2)c1 ?
class 1

And for CCc1cc(Cc2cnc(N)nc2N)cc(CC)c1OC ?
class 0

And for CC(=O)c1c(Cc2cccc(C(F)(F)F)c2)c[nH]c1C ?
class 1

And for Cc1cc(N[C@@H](Cc2ccccc2)C(=O)NCc2cccc(F)c2)nc(Nc2ccccc2)n1 ?
class 1

And for CCCN1CCN(c2ccc(NS(=O)(=O)c3ccc(C(=O)Nc4ccc(Cl)cc4)cc3)cc2)CC1 ?
class 0

And for CCCN(c1ccc(C(F)(F)F)cc1[N+](=O)[O-])S(=O)(=O)C(c1ccccc1)c1ccc(C(F)(F)F)cc1[N+](=O)[O-] (centres undefined) ?
class 0

And for COC(=O)c1ccc(CCC(C)NCC(O)c2cccc(C(F)(F)F)c2)cc1 (centres undefined) ?
class 1

* * *

Tested on: Plasmodium falciparum
Experiment: GSK_TCMDC: Inhibition of Plasmodium falciparum 3D7 in whole erythrocytes, using parasite LDH activity as an index of growth.
Assay type: functional, organism-based
Settings: Plasmodium falciparum, 3D7
OBSERVATION_TYPE: XC50 (nM)
Give a bare numeral; the unit nM is implied.

What value of XC50 has been reported for the following compound? O[C@@H](c1cc(C(F)(F)F)nc2c(C(F)(F)F)cccc12)[C@H]1CCCCN1
73.7

And for CN1CCCN(Cc2ccc(-c3ccc(NC(=O)c4cccc(C#N)c4)cc3)cc2)CC1 ?
875

And for NCC1CCCN1Cc1ccc(-c2cccc(-c3nc4cc(C(F)(F)F)ccc4[nH]3)c2)cc1 (centres undefined) ?
833

And for COC(=O)C(C)(C)c1ccc(CC(C)NCC(O)c2cccc(C(F)(F)F)c2)cc1 (centres undefined) ?
837

* * *

Tested on: Plasmodium falciparum
Assay: GSK_TCMDC: Inhibition of Plasmodium falciparum 3D7 in whole erythrocytes, using parasite LDH activity as an index of growth.
Assay type: functional, organism-based
Details: Plasmodium falciparum, 3D7
Would you kindly list XC50 for each of these molecules?
Give a bare numeral; the unit nM is implied.

What value of XC50 has been reported for the following molecule? CCCC(C)NC[C@@H](O)[C@H](Cc1ccccc1)NC(=O)c1cc(NCC)cc(N2CCCCS2(=O)=O)c1 (stereo not given in full)
163

And for CCCN(Cc1nnc(-c2ccco2)o1)C(=O)C1CCN(c2ncc(C(F)(F)F)cc2Cl)CC1 ?
691

And for CN(C)c1cccc2c1nc(-c1ccc3c(c1)CCO3)n2CCNCc1ccccc1 ?
734

And for Cc1ncccc1-c1cccc2c(NC(=O)Nc3ccc4nccc(N5CCN(C)CC5)c4c3)cccc12 ?
632

And for CCNC(=O)Nc1ccc(N(C)c2ccnc(NC3CC3)n2)cc1 ?
803

And for CCN1CCN(c2ccc(Nc3c4ccccc4nc4ccccc34)cc2)CC1 ?
718

And for CCOC(=O)c1nc(-c2cccnc2)[nH]c1NC(=S)NCc1ccccc1 ?
711

And for CC[C@H]1CN2CC[C@H]1C[C@H]2[C@H](O)c1cc(-c2ccc(F)cc2C)nc2ccc(OC)cc12 ?
157

And for O=C(NCCN1CCCC1)c1cccc(-c2ccc(-c3nc4cc(F)ccc4[nH]3)cc2)c1 ?
722

And for COc1ccc(CNCCCCCCNCCc2ccc(Cl)cc2)cc1OC ?
1390

And for CC(C)(C)c1ccc(OCCCON2C(=N)N=C(N)NC2(C)C)c(C(C)(C)C)c1 ?
3.2

And for Oc1ccc(Cl)c2c1C(c1ccccc1)=NCC2 ?
540

And for Cc1cc(C2CCN(CCCCNC(=O)c3ccc(-c4ccc(C(F)(F)F)cc4)cc3)CC2)c(C)cc1OCC(N)=O ?
805

And for COc1ccccc1OCCN(CC(O)COc1cccc2[nH]c3ccccc3c12)CC(O)COc1cccc2[nH]c3ccccc3c12 (stereo not given) ?
636

And for COc1ccc(-c2nc(NC(=O)CS(=O)(=O)c3ccccc3)sc2C)cc1 ?
596

And for COc1ccc(NC(=O)Nc2nc(-c3ccc(Cl)c(C)c3)cs2)cc1N1CCN(C)CC1 ?
266

And for O=C(Oc1ccc(Cl)cc1C(=O)Nc1ccc([N+](=O)[O-])cc1Cl)c1ccccc1 ?
912

And for CCCNCc1ccc(-c2ccc(CN(C(=O)c3nn(-c4ccccc4)nc3C)C3CCOCC3)cc2)nc1 ?
144

And for NC(CC1CC(=O)N1CC(=O)O)C(=O)O (stereo not given) ?
156

And for COc1ccc(CN2CCCN(Cc3cccc(NC(=O)c4ccc5ccccc5c4)c3)CC2)cc1 ?
1000

And for O=C(Cc1c[nH]cn1)Nc1cccc(-c2ccc(-c3nc4cc(F)ccc4[nH]3)s2)c1 ?
660

And for COc1ccc(C=Cc2cc(=N)c3ccccc3[nH]2)cc1Br ?
713

And for COc1ccc(CCC(C)N2CC(N)C(c3cn(C)c4cnccc34)C2)cc1 (stereo not given) ?
1360

And for Cc1sc(CNCCCNc2cc(=O)c3ccccc3[nH]2)cc1Br ?
764

And for CCc1ccc(NC(=O)N(CCCn2ccnc2)Cc2csc(-c3ccc(CNCc4ccccc4)cc3)n2)cc1 ?
757
